Documented inhibition at 3.5 h, 10 µM across a set of compounds
molecular target: hERG (Homo sapiens, UniProt Q12809); construct: purchased ThermoFisher Scientific PV5365; test: hERG test (Predictor hERG Fluorescence Polarization Assay Kit); type: binding; settings: human, probe Predictor hERG Tracer Red, 10 µM test substance, three duplicate wells
Sequence (Q12809 whole entry): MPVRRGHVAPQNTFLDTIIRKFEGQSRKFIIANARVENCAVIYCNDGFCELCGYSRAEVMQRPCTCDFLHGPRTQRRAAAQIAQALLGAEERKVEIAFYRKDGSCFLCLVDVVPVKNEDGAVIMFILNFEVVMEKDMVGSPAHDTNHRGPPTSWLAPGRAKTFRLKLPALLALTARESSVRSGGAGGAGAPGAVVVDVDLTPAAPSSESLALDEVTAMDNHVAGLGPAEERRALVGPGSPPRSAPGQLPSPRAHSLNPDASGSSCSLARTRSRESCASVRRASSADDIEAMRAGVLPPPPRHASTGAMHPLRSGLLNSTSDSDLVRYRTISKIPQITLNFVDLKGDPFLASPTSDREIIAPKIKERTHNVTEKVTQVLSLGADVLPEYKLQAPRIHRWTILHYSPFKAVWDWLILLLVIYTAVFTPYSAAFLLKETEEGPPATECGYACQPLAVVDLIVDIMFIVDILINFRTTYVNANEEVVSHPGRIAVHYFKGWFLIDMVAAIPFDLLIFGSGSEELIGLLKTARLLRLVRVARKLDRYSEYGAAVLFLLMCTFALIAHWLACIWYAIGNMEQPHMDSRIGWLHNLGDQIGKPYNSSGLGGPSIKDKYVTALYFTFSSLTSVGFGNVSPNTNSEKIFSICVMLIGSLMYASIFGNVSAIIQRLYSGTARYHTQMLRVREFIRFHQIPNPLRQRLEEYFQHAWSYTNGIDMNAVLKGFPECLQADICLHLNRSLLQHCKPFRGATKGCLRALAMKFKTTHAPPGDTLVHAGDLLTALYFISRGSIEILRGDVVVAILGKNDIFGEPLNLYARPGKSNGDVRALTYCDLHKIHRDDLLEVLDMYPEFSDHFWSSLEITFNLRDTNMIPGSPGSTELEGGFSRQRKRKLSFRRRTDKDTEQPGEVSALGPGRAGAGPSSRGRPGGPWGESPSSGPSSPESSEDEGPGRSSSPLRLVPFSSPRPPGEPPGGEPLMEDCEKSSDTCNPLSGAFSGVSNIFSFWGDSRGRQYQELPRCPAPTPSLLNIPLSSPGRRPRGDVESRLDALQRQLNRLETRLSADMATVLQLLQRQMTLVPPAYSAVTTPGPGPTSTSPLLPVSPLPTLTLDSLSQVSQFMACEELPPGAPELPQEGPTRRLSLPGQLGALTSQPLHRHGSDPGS

[
  {
    "compound": "CN(C(=O)c1cc2c(cc1F)nc(N)c1cnn(C)c12)[C@@H]1COc2cc(C#Cc3cnn(C4CC4)c3)ccc21 [Compound 12A]",
    "result.units": "%",
    "inhibition at 3.5 h, 10 µM": 22.4
  },
  {
    "compound": "Cc1nn(C)cc1C#Cc1ccc2c(c1)OC[C@H]2N(C)C(=O)c1cc2c3c(c(N)nc2cc1Cl)COC3 [Compound 50A]",
    "result.units": "%",
    "inhibition at 3.5 h, 10 µM": 22.4
  },
  {
    "compound": "CN(C(=O)c1cc2c3c(c(N)nc2cc1Cl)COC3)[C@@H]1COc2cc(C#Cc3cnn(C4CC4)c3)ccc21 [Compound 43A]",
    "result.units": "%",
    "inhibition at 3.5 h, 10 µM": 30.3
  },
  {
    "compound": "CN(C(=O)c1cc2c3c(c(N)nc2cc1F)COC3)C1COc2cc(C#Cc3cnn(C)c3)ccc21 (stereo not shown)",
    "result.units": "%",
    "inhibition at 3.5 h, 10 µM": 23.8
  }
]

====

experiment: PK experiment in mice; settings: mouse, plasma, po, 10 mg/kg
Consider the following compounds and their measured AUC(0-t) readings.

[
  {
    "compound": "CN(C(=O)c1cc2c(cc1F)nc(N)c1cnn(C)c12)[C@@H]1COc2cc(C#Cc3cnn(C)c3)ccc21 [Compound 5A]",
    "result.units": "ng·h/mL",
    "AUC(0-t)": 15700
  },
  {
    "compound": "Cn1ncc(-c2ccc3c(=O)[nH]nc(CN)c3c2)c1-c1c(F)c(Cl)cc(OC2CC2)c1C#N (atropisomer, axis not shown) [Reference Example 6, reference compound]",
    "result.units": "ng·h/mL",
    "AUC(0-t)": 1970
  }
]

====

Below: a set of entries, each annotated with reported pIC50.
system: wild-type HCT-116 cells; assay: Cell proliferation (MTS), wild-type HCT-116; format: cell-based; conditions: Homo sapiens, 240 h; wild-type HCT-116, 10 days with compound, MTS reading; read-out: IC50 HCT116 WT
pIC50: −log10 of the molar value.

[
  {
    "molecule": "CN(C(=O)c1ccc2nc(N)c3cnn(C)c3c2c1)[C@@H]1COc2cc(C#Cc3cn(C)nc3C(F)(F)F)ccc21 [Compound 31A]",
    "pIC50": 6.72
  },
  {
    "molecule": "CCn1cc(C#Cc2ccc3c(c2)OC[C@H]3N(C)C(=O)c2ccc3nc(N)c4cnn(C)c4c3c2)cn1 [Compound 20A]",
    "pIC50": 5.98
  },
  {
    "molecule": "CN(C(=O)c1cc2c(cc1F)nc(N)c1cnn(C)c12)[C@@H]1COc2cc(C#Cc3cnn(C)c3)ccc21 [Compound 5A]",
    "pIC50": 6.77
  },
  {
    "molecule": "CN(C(=O)c1cc2c3c(c(N)nc2cc1Cl)COC3)[C@@H]1COc2cc(C#Cc3cccnc3)ccc21 [Compound 70A]",
    "pIC50": 6.32
  },
  {
    "molecule": "CN(C(=O)c1cc2c3c(c(N)nc2cc1Cl)COC3)[C@@H]1COc2cc(C#Cc3ccnn3C)ccc21 [Compound 78A]",
    "pIC50": 6.29
  },
  {
    "molecule": "CN(C(=O)c1cc2c(cc1F)nc(N)c1cnn(C)c12)C1COc2cc(C#Cc3cnn(C)c3)ccc21 (centres unmarked) [Compound 5]",
    "pIC50": 6.23
  },
  {
    "molecule": "CN(C(=O)c1cc2c(cc1F)nc(N)c1cnn(C)c12)[C@@H]1COc2cc(C#Cc3ccc4cnn(C)c4c3)ccc21 [Compound 60A]",
    "pIC50": 6.31
  },
  {
    "molecule": "Cc1ncccc1C#Cc1ccc2c(c1)OCC2N(C)C(=O)c1cc2c(cc1F)nc(N)c1cnn(C)c12 (centres unmarked) [Compound 45]",
    "pIC50": 6.18
  },
  {
    "molecule": "CN(C(=O)c1cc2c(cc1Cl)nc(N)c1cnn(C)c12)C1COc2cc(C#Cc3cnn(C4CC4)c3)ccc21 (centres unmarked) [Compound 8]",
    "pIC50": 6.85
  },
  {
    "molecule": "Cc1c(C#Cc2ccc3c(c2)OCC3N(C)C(=O)c2cc3c(cc2Cl)nc(N)c2cnn(C)c23)cnn1C (centres unmarked) [Compound 22]",
    "pIC50": 7.02
  },
  {
    "molecule": "CN(C(=O)c1cc2c3c(c(N)nc2cc1Cl)COC3)C1COc2cc(C#Cc3cnn(C)c3)ccc21 (centres unmarked) [Compound 40]",
    "pIC50": 5.84
  },
  {
    "molecule": "Cc1ccncc1C#Cc1ccc2c(c1)OC[C@H]2N(C)C(=O)c1cc2c(cc1Cl)nc(N)c1cnn(C)c12 [Compound 63A]",
    "pIC50": 7.07
  },
  {
    "molecule": "CN(C(=O)c1cc2c(cc1Cl)nc(N)c1cnn(C)c12)[C@@H]1COc2cc(C#Cc3ccnn3C)ccc21 [Compound 53A]",
    "pIC50": 7.35
  },
  {
    "molecule": "CN(C(=O)c1ccc2nc(N)c3cnn(C)c3c2c1)[C@@H]1COc2cc(C#Cc3cn(C)nc3Cl)ccc21 [Compound 34A]",
    "pIC50": 6.58
  }
]
